Data credit: patent US20250163064A1

target: GDP-bound KRAS protein (aa 1-169), G12D and C118A; SOS-mediated nucleotide exchange (Homo sapiens (Human), UniProt P01116, C118A/G12D); test: KRAS G12D Coupled Nucleotide Exchange Assay; type: biochemical; conditions: 2 h compound pre-incubation, GTP, cRAF AlphaScreen
Sequence (P01116 other isoform, or with tags, fused parts or gaps G12D/C118A): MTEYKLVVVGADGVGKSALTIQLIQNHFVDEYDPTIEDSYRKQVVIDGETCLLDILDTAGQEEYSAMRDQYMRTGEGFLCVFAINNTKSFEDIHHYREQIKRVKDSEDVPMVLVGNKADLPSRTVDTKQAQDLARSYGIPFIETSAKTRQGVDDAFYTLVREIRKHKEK
measurementKind: IC50
Write the numeric value and append its unit.

Challenge: What value of IC50 has been recorded for this entry: N#Cc1c(N)sc2c(F)ccc(-c3c(Cl)cc4c(N5CCCC[C@H](C#N)C5)nc(OC[C@@]56CCCN5C[C@H](F)C6)nc4c3F)c12 [Example 69]
Response given: 71 nM

Challenge: And what about the compound CC1(O)COCCN(c2nc(OC[C@@]34CCCN3C[C@H](F)C4)nc3c(F)c(-c4ccc(F)c5sc(N)c(C#N)c45)c(Cl)cc23)C1 (single isomer, unassigned) [Example 22] ?
Response given: 2 nM

Challenge: Item: N#Cc1c(N)sc2c(F)ccc(-c3c(Cl)cc4c(N5CCOCC(F)(F)C5)nc(OC[C@@]56CCCN5C[C@H](F)C6)nc4c3F)c12 [Example 34]
Response given: 4 nM

Challenge: Also N#Cc1c(N)sc2c(F)ccc(-c3c(Cl)cc4c(N5CCCC6(CC(=O)N6)C5)nc(OC[C@@]56CCCN5C[C@H](F)C6)nc4c3F)c12 (some centres unmarked) [Example 13] ?
Response given: 5 nM

Challenge: Follow-up item: N#Cc1c(N)sc2c(F)ccc(-c3c(Cl)cc4c(N5CCOCC(F)C5)nc(OC[C@@]56CCCN5C[C@H](F)C6)nc4c3F)c12 (single isomer, unassigned) [Example 58]
Response given: 1 nM
